# protocol: in vitro
# conditionDetails: human, hela cells, % viability
endpoint: viability at 28.5 h, 10 µM (%)
Answer in %, number only, no unit symbol.

What the record says about `CCCNc1nc(-c2ccc(C)c(C)c2)cn2ccnc12` : viability at 28.5 h, 10 µM is 101

What the record says about Cc1c(CN(Cc2cccc(F)c2)CC2CCCO2)cnn1C (stereo not drawn) : viability at 28.5 h, 10 µM is 89.9

What the record says about `CCN(CC)C(=O)[C@@H]1CCCN1c1nc(O)cc(C(F)(F)F)n1` : viability at 28.5 h, 10 µM is 92

What the record says about `O=C(Cn1nnc(-c2ccccc2)n1)Nc1cccc([N+](=O)[O-])c1` : viability at 28.5 h, 10 µM is 97.9

What the record says about `CS(=O)(=O)N[C@H]1CCN2C(=O)c3cc(-c4ccc(Cl)cc4)ccc3NC(=O)[C@@H]2C1` : viability at 28.5 h, 10 µM is 95.3

What the record says about CN1CCN(C(=O)C2CCCN(S(=O)(=O)c3ccc(Br)cc3)C2)CC1 (stereo not drawn) : viability at 28.5 h, 10 µM is 107

What the record says about `COc1cc(C(c2c[nH]c3ccccc23)c2c[nH]c3ccccc23)ccc1OCC(=O)O` : viability at 28.5 h, 10 µM is 97.8

What the record says about Cc1ccc(OC2(C(=O)N3CCCC3c3nccs3)CCNCC2)cc1 (stereo not drawn) : viability at 28.5 h, 10 µM is 94.6

What the record says about CC(Cn1cc(Cl)cn1)C(=O)NCCN(C)C1CCCCC1 (stereo not drawn) : viability at 28.5 h, 10 µM is 86.1

Attribution: paper PMC12040169
